Reference source for all entries: patent US20180273587A1

SYSTEM UNDER TEST: T1, MCL-1 (UniProt Q07820 172-327, limits assumed)
T1 construct: Target of the Ki columns; also called Myeloid cell leukemia 1
T1 sequence (Q07820 172-327 limits assumed): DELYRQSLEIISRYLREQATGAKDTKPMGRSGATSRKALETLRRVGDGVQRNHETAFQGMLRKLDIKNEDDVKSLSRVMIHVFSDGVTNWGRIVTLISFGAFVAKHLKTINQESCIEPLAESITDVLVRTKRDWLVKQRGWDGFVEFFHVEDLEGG
METHOD: Ki (Table 6); method not stated
PROPERTY: Ki
Mention the unit after the number when you answer.

Inquiry: Would you mind telling me what Ki value was observed for IWIAQALXAIGDAFNAYYA (N-terminal Ac; Cit at residue 8 (column 153); $r8 at residue 9 (column 154) and $ at residue 16 (column 161), crosslinked; C-terminal NH2) [Cross-linked peptide #5] ?
Reply text: 7.5 nM
